Reported inhibition values follow for various compounds
Assay: blockers of ER-stress CHOP reporter expression – cell-based, unfolded protein response, luciferase reporter, primary screen (AID 2732);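 also: 0% = tunicamycin plus vehicle and 100% = wells without tunicamycin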
Conditions: CHO-K1 CHOP-promoter luciferase, tunicamycin-induced, 15-18 h; at 10 µM; hits give high values
In all, about 220,000 compounds went through this assay and about 8,200 (3.7%) were called active. The entries come from a sample that favours actives as a whole.
Give the number; % is assumed, so skip it.

Worked examples, 2 compounds total:
>  <SMILES_STR>
Nc1ccc(N=Nc2ccccc2Cl)c(N)n1

>  <inhibition (%)>
-4.49

$$$$
>  <SMILES_STR>
CCN(CC)C(=O)CSC(Nc1cccc(F)c1)=C(C#N)C#N

>  <inhibition (%)>
-25.7

$$$$

In the following, a different compound is considered.
Req: Returns the measured inhibition for the input compound. Input: COc1cccc(CN(C)CC(=O)Nc2sc3c(c2C#N)CCC3)c1
Resp: 3.74
